All values here come from the supplement of paper PMC9112550.

# Tested on: Escherichia coli TOP10;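 also: peptides expressed intracellularly from a pBAD plasmid library in pooled LB shake-flask culture, induced with 0.3% L-arabinose, DNA abundance read by NGS, three biological replicates, DESeq2 with apeglm shrinkage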
# Assay text: shrunken log2 fold change of peptide-encoding DNA abundance (4.5 h post-induction vs induction); higher = less antimicrobial activity (less host growth inhibition)
# Assay conditions: time post-induction: 4.5 h; library: site-saturation at positions 5, 18, 19, 20
Result type: shrunken log2 fold change

Input `RRIRQRPPRLPRPRPRPPEYPRP` , output reported shrunken log2 fold change.
-0.245

Input `RRIRYRPPRLPRPRPRPIMRPRP` , output reported shrunken log2 fold change.
0.0675

Input `RRIRYRPPRLPRPRPRPQARPRP` , output reported shrunken log2 fold change.
-0.0547

Input `RRIRCRPPRLPRPRPRPWYDPRP` , output reported shrunken log2 fold change.
-0.0194

Input `RRIRVRPPRLPRPRPRPPWWPRP` , output reported shrunken log2 fold change.
0.665

Input `RRIRARPPRLPRPRPRPRGSPRP` , output reported shrunken log2 fold change.
0.708

Input `RRIRERPPRLPRPRPRPINNPRP` , output reported shrunken log2 fold change.
-0.944

Input `RRIRERPPRLPRPRPRPQLNPRP` , output reported shrunken log2 fold change.
-0.423

Input `RRIRRRPPRLPRPRPRPNGGPRP` , output reported shrunken log2 fold change.
0.171

Input `RRIRQRPPRLPRPRPRPYMMPRP` , output reported shrunken log2 fold change.
0.00408

Input `RRIRRRPPRLPRPRPRPNKPPRP` , output reported shrunken log2 fold change.
0.101

Input `RRIRARPPRLPRPRPRPCCWPRP` , output reported shrunken log2 fold change.
0.245

Input `RRIRNRPPRLPRPRPRPGEPPRP` , output reported shrunken log2 fold change.
0.033

Input `RRIRKRPPRLPRPRPRPNWKPRP` , output reported shrunken log2 fold change.
0.363

Input `RRIRPRPPRLPRPRPRPQGEPRP` , output reported shrunken log2 fold change.
0.208

Input `RRIRVRPPRLPRPRPRPITAPRP` , output reported shrunken log2 fold change.
-0.272

Input `RRIRPRPPRLPRPRPRPGQGPRP` , output reported shrunken log2 fold change.
0.201

Input `RRIRTRPPRLPRPRPRPHMKPRP` , output reported shrunken log2 fold change.
-0.712

Input `RRIRARPPRLPRPRPRPELLPRP` , output reported shrunken log2 fold change.
0.961

Input `RRIRGRPPRLPRPRPRPNMYPRP` , output reported shrunken log2 fold change.
-0.185

Input `RRIRERPPRLPRPRPRPTLRPRP` , output reported shrunken log2 fold change.
0.383

Input `RRIRTRPPRLPRPRPRPDQCPRP` , output reported shrunken log2 fold change.
0.0333

Input `RRIRCRPPRLPRPRPRPCLVPRP` , output reported shrunken log2 fold change.
-0.463

Input `RRIRYRPPRLPRPRPRPCQNPRP` , output reported shrunken log2 fold change.
0.0275

Input `RRIRFRPPRLPRPRPRPNHWPRP` , output reported shrunken log2 fold change.
-0.131

Input `RRIRSRPPRLPRPRPRPIDWPRP` , output reported shrunken log2 fold change.
0.217

Input `RRIRPRPPRLPRPRPRPNSKPRP` , output reported shrunken log2 fold change.
-0.557

Input `RRIRDRPPRLPRPRPRPRVYPRP` , output reported shrunken log2 fold change.
0.102

Input `RRIRRRPPRLPRPRPRPFMLPRP` , output reported shrunken log2 fold change.
0.0692

Input `RRIRLRPPRLPRPRPRPWDYPRP` , output reported shrunken log2 fold change.
0.0642

Input `RRIRRRPPRLPRPRPRPPMDPRP` , output reported shrunken log2 fold change.
0.385

Input `RRIRSRPPRLPRPRPRPCMTPRP` , output reported shrunken log2 fold change.
-0.102
